The entries below are paired with their reported polymerase ribozyme fitness (log ratio).
B1: TPR 5TU (parent)
chain: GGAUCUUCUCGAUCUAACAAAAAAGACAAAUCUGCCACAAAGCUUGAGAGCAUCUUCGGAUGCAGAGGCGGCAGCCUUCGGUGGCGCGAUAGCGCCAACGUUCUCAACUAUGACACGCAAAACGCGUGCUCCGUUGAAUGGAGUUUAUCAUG

variants of: B1; assay: polymerase ribozyme fitness, log enrichment relative to wild type (log ratio); higher = more active; in vitro selection for triplet polymerase activity
Fewer inactive variants are shown than the library holds.

As a guide, the following entries are already answered.
> print(dat)
   mutation.notation                       measured.attribute  assay.value
1          A49U C85U  polymerase ribozyme fitness (log ratio)        -2.25
2    C38U A73G C103A  polymerase ribozyme fitness (log ratio)        -3.99

Look up and state reported polymerase ribozyme fitness (log ratio) for A16G A52G C57U A73C C85U C96G
≤ -4.2

Look up and state reported polymerase ribozyme fitness (log ratio) for C5A C57G C75U G86A A91C
-4.01

Look up and state reported polymerase ribozyme fitness (log ratio) for U9A A28G A41C A64U G80U C87A C95U C131G
≤ -4.2

Look up and state reported polymerase ribozyme fitness (log ratio) for G117U
-0.0156

Look up and state reported polymerase ribozyme fitness (log ratio) for C38A C76G G92C
≤ -4.2

Data provenance: the RNAGym collection of RNA variant scans (doi:10.1073/pnas.2313332121)
